B1: SETD8 (parent)
chain: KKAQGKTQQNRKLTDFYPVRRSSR

variants of: B1; assay: protein stability index of a GFP-peptide fusion (GPS, HEK-293T) (PSI 1-6); higher = more stable; settings: c terminus: a fixed tail appended;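 note: lentivirally expressed fusions sorted by FACS into six bins by GFP to DsRed ratio, PSI derived from sequencing read proportions per bin multiplied by bin number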
The reader will find reported protein stability index values listed item by item below.

VARIANT_SPEC: V19H
protein stability index: 3.63
//
VARIANT_SPEC: K6V
protein stability index: 2.25
//
VARIANT_SPEC: T7D
protein stability index: 3.32
//
VARIANT_SPEC: R21E
protein stability index: 3.17
//
VARIANT_SPEC: S23N
protein stability index: 2.66
//
VARIANT_SPEC: Q4K
protein stability index: 3.35
//
VARIANT_SPEC: P18T
protein stability index: 3.77
//
VARIANT_SPEC: Y17C
protein stability index: 3.58
//
VARIANT_SPEC: G5I
protein stability index: 1.68
//
VARIANT_SPEC: R24P
protein stability index: 3.87
//
VARIANT_SPEC: Q9H
protein stability index: 4.29
//
VARIANT_SPEC: P18L
protein stability index: 3.36
//
VARIANT_SPEC: S23E
protein stability index: 3.5
//
VARIANT_SPEC: R21N
protein stability index: 3.2
//
VARIANT_SPEC: T7H
protein stability index: 2.88
//
VARIANT_SPEC: Q9L
protein stability index: 2.65
//
VARIANT_SPEC: G5V
protein stability index: 2.65
